In this section, each of the compounds is paired with its reported pIC50.
Assay: Antagonist activity at CCR5 in HOS cells assessed as inhibition of HIV-1 Ba-L infection
Scale for pIC50: -log10 of concentration given in mol/L; no unit attached.

Examples with answers:
C=CCN(C(=O)OCc1ccc(S(C)(=O)=O)cc1)C1CCN(CCC2(c3cccc(F)c3)CCN(C(=O)c3cc(S(=O)(=O)NC(C)(C)C)c(F)cc3Cl)CC2)CC1 | 7.77
C=CCN(C(=O)CCc1ccc(OC(F)(F)F)cc1)C1CCN(CCC2(c3cccc(F)c3)CCN(C(=O)c3cc(S(=O)(=O)NC)c(F)cc3Cl)CC2)CC1 | 6.38

// query What does the record list as pIC50 for `C=CCN(C(=O)NCc1ccc(C(N)=O)cc1)C1CCN(CCC2(c3cccc(F)c3)CCN(C(=O)c3cc(S(=O)(=O)NC(C)(C)C)c(F)cc3Cl)CC2)CC1` ?
// result 5.51

// query What does the record list as pIC50 for `C=CCN(C(=O)Cc1ccc(C(N)=O)cc1)C1CCN(CCC2(c3cccc(F)c3)CCN(C(=O)c3cc(S(=O)(=O)NC(C)(C)C)c(F)cc3Cl)CC2)CC1` ?
// result 6.68

// query What does the record list as pIC50 for `C=CCN(C(=O)Nc1ccc(F)cc1)C1CCN(CCC2(c3cccc(F)c3)CCN(C(=O)c3cc(S(=O)(=O)NC(C)(C)C)c(F)cc3Cl)CC2)CC1` ?
// result 7.47

// query What does the record list as pIC50 for `C=CCN(C(=O)Nc1ccc(S(C)(=O)=O)cc1)C1CCN(CCC2(c3cccc(F)c3)CCN(C(=O)c3cc(S(=O)(=O)NC(C)(C)C)c(F)cc3Cl)CC2)CC1` ?
// result 7.94

---

Assay: Antagonist activity at CCR5 in human peripheral blood lymphocytes cells assessed as inhibition of HIV-1 Ba-L infection
In this section, each of the molecules is paired with its reported IC50.
Give the number; nM is assumed, so skip it.

Examples with answers:
C=CCN(C(=O)NCc1ccc(C(F)(F)F)cc1)C1CCN(CCC2(c3cccc(F)c3)CCN(C(=O)c3cc(S(=O)(=O)NC(C)(C)C)c(F)cc3Cl)CC2)CC1 | 42
C=CCN(C(=O)OCc1ccc([N+](=O)[O-])cc1)C1CCN(CCC2(c3cccc(F)c3)CCN(C(=O)c3cc(S(=O)(=O)NC(C)(C)C)c(F)cc3Cl)CC2)CC1 | 24
C=CCN(C(=O)OCc1ccc(S(C)(=O)=O)cc1)C1CCN(CCC2(c3cccc(F)c3)CCN(C(=O)c3cc(S(=O)(=O)NC(C)(C)C)c(F)cc3Cl)CC2)CC1 | 4.5
CCCCN(C(=O)NCc1ccc(C#N)cc1)C1CCN(CCC2(c3cccc(F)c3)CCN(C(=O)c3cc(S(=O)(=O)NC(C)(C)C)c(F)cc3Cl)CC2)CC1 | 11

// query What does the record list as IC50 for `C=CCN(C(=O)Cc1ccc(OC(F)(F)F)cc1)C1CCN(CCC2(c3cccc(F)c3)CCN(C(=O)c3cc(S(=O)(=O)NC(C)(C)C)c(F)cc3Cl)CC2)CC1` ?
// result 87

---

Assay: Antagonist activity at CCR5 in HOS cells assessed as inhibition of HIV-1 Ba-L infection
In this section, each of the molecules is paired with its reported IC50.
Give the number; nM is assumed, so skip it.

C=CCN(C(=O)NCc1ccc(C(=O)OC)cc1)C1CCN(CCC2(c3cccc(F)c3)CCN(C(=O)c3cc(S(=O)(=O)NC(C)(C)C)c(F)cc3Cl)CC2)CC1 | 26
C=CCN(C(=O)Nc1ccc(C#N)cc1)C1CCN(CCC2(c3cccc(F)c3)CCN(C(=O)c3cc(S(=O)(=O)NC(C)(C)C)c(F)cc3Cl)CC2)CC1 | 20.5

Now examine the next entry.
// query What does the record list as IC50 for `C=CCN(C(=O)NCc1ccc(F)cc1)C1CCN(CCC2(c3cccc(F)c3)CCN(C(=O)c3cc(S(=O)(=O)NC(C)(C)C)c(F)cc3Cl)CC2)CC1` ?
// result 46
